Origin of measurements: patent US20070293475A1

# STUDY SYSTEM: human serotonin receptor clone 5-HT2C (Homo sapiens, UniProt P28335)
# Construct: expressed in transfected cells; host or cells: CHO-K1 cells stably expressing aequorin and Galpha16
# Sequence (P28335 33-458): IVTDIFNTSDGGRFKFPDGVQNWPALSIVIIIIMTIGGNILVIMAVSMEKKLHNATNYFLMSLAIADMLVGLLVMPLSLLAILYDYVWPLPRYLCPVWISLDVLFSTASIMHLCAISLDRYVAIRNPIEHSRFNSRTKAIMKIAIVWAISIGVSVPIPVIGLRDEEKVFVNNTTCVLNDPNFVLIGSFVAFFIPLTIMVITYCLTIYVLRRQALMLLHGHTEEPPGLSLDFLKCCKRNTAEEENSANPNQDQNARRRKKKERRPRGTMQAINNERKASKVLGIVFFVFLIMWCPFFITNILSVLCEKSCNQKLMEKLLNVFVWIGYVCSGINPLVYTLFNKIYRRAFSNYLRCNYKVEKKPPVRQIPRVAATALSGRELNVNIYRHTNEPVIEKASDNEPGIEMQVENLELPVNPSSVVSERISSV
# ASSAY NOTES: h5-HT2 functional assay, CHO-K1 aequorin luminescence (5-HT2C)
# Type: cell-based
# CONDITION: CHO-K1; relative to the response of 5-HT; read-out: h5-HT 2C (Emax)
Emax overview
Form field: result (number plus unit)

Q. Give its Emax value. Item: `COc1cc(Cc2ccc3c(c2)CCNCC3)cc(OC)c1`
A. 105%

Q. Continue with `COc1cccc(OCc2ccc3c(c2)CCNCC3)c1`
A. 107%

* * *

// reported EC50 for each item listed
# STUDY SYSTEM: recombinant rat 5-HT2C receptor (Rattus norvegicus)
# Sequence (P08909 33-460): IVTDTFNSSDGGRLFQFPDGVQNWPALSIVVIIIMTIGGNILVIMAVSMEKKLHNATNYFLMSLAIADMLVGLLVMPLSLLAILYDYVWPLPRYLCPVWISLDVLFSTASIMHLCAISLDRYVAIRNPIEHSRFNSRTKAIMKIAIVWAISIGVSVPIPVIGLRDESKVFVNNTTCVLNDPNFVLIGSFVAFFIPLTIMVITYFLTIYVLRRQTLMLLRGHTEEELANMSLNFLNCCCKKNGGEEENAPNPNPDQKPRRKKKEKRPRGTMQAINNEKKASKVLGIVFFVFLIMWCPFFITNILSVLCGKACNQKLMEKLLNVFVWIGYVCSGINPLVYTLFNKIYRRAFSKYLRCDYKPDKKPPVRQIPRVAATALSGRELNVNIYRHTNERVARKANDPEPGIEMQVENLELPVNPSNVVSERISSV
# ASSAY NOTES: r5-HT2C functional assay: FLIPR, SR3T3 cells
# CONDITION: FLIPR, SR3T3 cells expressing recombinant rat 5-HT2C; read-out: r5-HT 2C EC50
# Method: The receptor-mediated mobilization of intracellular calcium ([Ca^2+]i) was studied using the Fluorescence Imaging Plate Reader (FLIPR) instrument. […] At the beginning of an experimental run, a signal test was performed to check the basal fluorescence signal from the dye-loaded cells and the uniformity of the signal across the plate. The basal fluorescence was adjusted between 8000-12000 counts by modifying the exposure time, the camera F-stop, or the laser power. […]
Field: numeric (nM). Do not append units.

>>> assay_result("Oc1cccc(OCc2ccc3c(c2)CCNCC3)c1")
65
>>> assay_result("Oc1cccc(Cc2ccc3c(c2)CCNCC3)c1")
120
>>> assay_result("COc1cc(Cc2ccc3c(c2)CCNCC3)cc(OC)c1")
629
>>> assay_result("COc1cccc(OCc2ccc3c(c2)CCNCC3)c1")
91
>>> assay_result("COc1cccc(COc2cc3c(cc2C)CCNCC3)c1")
250

Now turn to the next molecule.
Q. So what's the measured EC50 for this one? `COc1cccc(Cc2ccc3c(c2)CCNCC3)c1`
A. 82

* * *

# STUDY SYSTEM: r5-HT2A (Rattus norvegicus)
# Construct: endogenous in cells; host or cells: A7r5 rat vascular smooth muscle cells
# Sequence (P14842 whole entry): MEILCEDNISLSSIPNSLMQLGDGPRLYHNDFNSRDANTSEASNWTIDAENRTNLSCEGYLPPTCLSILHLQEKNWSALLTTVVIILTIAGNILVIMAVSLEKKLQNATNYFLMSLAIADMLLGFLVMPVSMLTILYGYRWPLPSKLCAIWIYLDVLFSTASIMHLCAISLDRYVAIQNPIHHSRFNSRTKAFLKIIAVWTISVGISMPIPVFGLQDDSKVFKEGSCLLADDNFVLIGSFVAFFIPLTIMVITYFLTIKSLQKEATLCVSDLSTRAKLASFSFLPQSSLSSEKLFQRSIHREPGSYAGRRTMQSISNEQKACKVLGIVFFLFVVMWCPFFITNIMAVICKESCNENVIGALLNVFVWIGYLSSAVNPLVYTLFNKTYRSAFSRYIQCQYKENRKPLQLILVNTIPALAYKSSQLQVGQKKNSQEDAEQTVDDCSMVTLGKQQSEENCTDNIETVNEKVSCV
# ASSAY NOTES: r5-HT2A functional assay: FLIPR, intracellular calcium mobilization in A7r5 cells
# Assay type: cell-based
# CONDITION: percentage of maximum 5-HT-induced response; A7r5 cells; read-out: r5-HT 2A (Emax)
MEASURED QUANTITY: Emax (%)
Lab book: enter the figure in %, no units written.

The following compounds have reported results that may help.
>>> assay_result("COc1cccc(COc2cc3c(cc2C)CCNCC3)c1")
48
>>> assay_result("Oc1cccc(OCc2ccc3c(c2)CCNCC3)c1")
40
>>> assay_result("COc1cccc(Cc2ccc3c(c2)CCNCC3)c1")
39

Now for another entry.
Q. For `COc1cccc(OCc2ccc3c(c2)CCNCC3)c1` , what is its reported Emax?
A. 35

* * *

# STUDY SYSTEM: human serotonin receptor clone 5-HT2C (Homo sapiens)
# Construct: expressed in transfected cells; host or cells: CHO-K1 cells stably expressing aequorin and Galpha16
# ASSAY NOTES: h5-HT2 functional assay, CHO-K1 aequorin luminescence (5-HT2C)
# Format: cell-based
# CONDITION: CHO-K1; relative to the response of 5-HT; read-out: h5-HT 2C (Emax)
MEASURED QUANTITY: Emax

Record excerpt, results attached:
>>> assay_result("Oc1cccc(Cc2ccc3c(c2)CCNCC3)c1 [Example 2]")
"109%"
>>> assay_result("COc1cccc(COc2cc3c(cc2C)CCNCC3)c1 [Example 8]")
"101%"

Could you now look at the following compound, please?
Q. Request - read-out Emax | tested on human serotonin receptor clone 5-HT2C (Homo sapiens) | compound COc1cccc(Cc2ccc3c(c2)CCNCC3)c1 [Example 1]
A. 105%
